Biological target: Cathepsin V (Homo sapiens)
Assay: Specificity of inhibitors: cathepsin V activity with Z-Phe-Arg-AMC
Format: biochemical
Conditions: Cathepsin V, pH 4.6; without pre-incubation
recorded_metric: IC50

Record Cc1cccc(C)c1C(=O)OCC(=O)C(CCCCN)NC(=O)C(CCC(=O)O)NC(=O)OCc1ccccc1 (stereo not shown) , field IC50: 1900 nM

----------
Molecular target: Cathepsin C (Homo sapiens, UniProt P53634)
Sequence (P53634 25-134 limits assumed): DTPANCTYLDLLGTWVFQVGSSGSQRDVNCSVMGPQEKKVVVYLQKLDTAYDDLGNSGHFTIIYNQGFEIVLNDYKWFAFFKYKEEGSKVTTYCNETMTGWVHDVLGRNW
Sequence (P53634 231-394 limits assumed): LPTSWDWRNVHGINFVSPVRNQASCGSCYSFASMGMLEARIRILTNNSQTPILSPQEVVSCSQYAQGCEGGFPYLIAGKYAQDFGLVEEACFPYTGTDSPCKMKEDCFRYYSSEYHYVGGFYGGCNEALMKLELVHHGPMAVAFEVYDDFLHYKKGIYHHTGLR
Sequence (P53634 395-463 limits assumed): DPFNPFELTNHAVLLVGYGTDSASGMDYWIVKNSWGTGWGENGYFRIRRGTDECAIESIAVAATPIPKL
Experiment: Specificity of inhibitors: cathepsin C activity with Gly-Arg-AMC
Assay type: biochemical
Conditions: Cathepsin C, pH 7.2; without pre-incubation
# reported IC50; entries follow
Value expressed in µM; do not type the unit.

>>> reported("Cc1cccc(C)c1C(=O)OCC(=O)[C@H](CCCCN)NC(=O)[C@H](CCCN=C(N)N)NC(=O)OCc1ccccc1 [Z-Arg-Lys-AOMK]")
0.85

Note: attention shifts to another entry.
Record for Cc1cccc(C)c1C(=O)OCC(=O)C(CCCCN)NC(=O)C(CCC(=O)O)NC(=O)OCc1ccccc1 (stereo not drawn) [Z-Glu-Lys-AOMK] under target or system Cathepsin C (Homo sapiens, UniProt P53634): IC50 reported as 12

----------
Target: cathepsin B (Homo sapiens, UniProt P07858)
Assay: Cathepsin B inhibition, fluorogenic assay with Z-Phe-Arg-AMC substrate
Format: biochemical
Conditions: cathepsin B, pH 6.8
recorded_metric: pIC50
FYI, pIC50 means -log10 of a concentration in mol per litre.

The reported value for Cc1cccc(C)c1C(=O)OCC(=O)[C@H](CCCCN)NC(=O)[C@H](CCCN=C(N)N)NC(=O)OCc1ccccc1 in terms of pIC50 is 7.66

----------
Catalogue of pIC50 readings, one per entry.
Target: cathepsin B (Homo sapiens)
Assay: Cathepsin B inhibition, fluorogenic assay with Z-Phe-Arg-AMC substrate
Type: biochemical
Details: cathepsin B, pH 7.2; without preincubation; Z-Phe-Arg-AMC 40 μM
Recall that pIC50 is obtained by taking minus log10 of the concentration measured in molar.

>>> reported("Cc1cccc(C)c1C(=O)OCC(=O)C(CCCCN)NC(=O)C(CCC(=O)O)NC(=O)OCc1ccccc1 (centres unmarked)")
6.49

API: the following record is the query input.
pIC50 reported for this compound Cc1cccc(C)c1C(=O)OCC(=O)[C@H](CCCCN)NC(=O)[C@H](CCCN=C(N)N)NC(=O)OCc1ccccc1 : 7.70

----------
Target: UniProt:P25774
Sequence (P25774 115-331): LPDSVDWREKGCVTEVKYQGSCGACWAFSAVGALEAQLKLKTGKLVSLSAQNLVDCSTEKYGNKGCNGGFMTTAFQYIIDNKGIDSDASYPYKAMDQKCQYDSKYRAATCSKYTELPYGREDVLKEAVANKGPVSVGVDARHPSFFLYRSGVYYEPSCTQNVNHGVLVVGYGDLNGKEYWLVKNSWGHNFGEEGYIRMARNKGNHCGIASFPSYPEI
Assay: Specificity of inhibitors: cathepsin S activity with Z-Phe-Arg-AMC
Format: biochemical
Settings: Cathepsin S, pH 4.6; without pre-incubation
As shown below, each of these compounds has a reported IC50 value.

>>> reported("Cc1cccc(C)c1C(=O)OCC(=O)C(CCCCN)NC(=O)C(CCC(=O)O)NC(=O)OCc1ccccc1 (centres unmarked)")
"> 16 µM"

Kindly review the next compound as well.
Measured IC50 of Cc1cccc(C)c1C(=O)OCC(=O)[C@H](CCCCN)NC(=O)[C@H](CCCN=C(N)N)NC(=O)OCc1ccccc1 : > 16 µM

----------
Molecular target: Cathepsin V (Homo sapiens, UniProt O60911)
Sequence (O60911 114-334): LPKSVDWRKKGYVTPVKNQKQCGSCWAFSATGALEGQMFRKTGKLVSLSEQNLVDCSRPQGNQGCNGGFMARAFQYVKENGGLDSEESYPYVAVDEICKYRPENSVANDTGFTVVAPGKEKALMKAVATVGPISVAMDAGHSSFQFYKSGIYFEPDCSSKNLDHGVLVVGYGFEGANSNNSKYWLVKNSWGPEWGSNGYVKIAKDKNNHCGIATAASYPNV
Assay: Specificity of inhibitors: cathepsin V activity with Z-Phe-Arg-AMC
Assay type: biochemical
Details: Cathepsin V, pH 7.2; without pre-incubation
recorded_metric: pIC50
Reminder that pIC50 means the negative base-10 logarithm of the concentration expressed in mol/L.

Per the record, Cc1cccc(C)c1C(=O)OCC(=O)[C@H](CCCCN)NC(=O)[C@H](CCCN=C(N)N)NC(=O)OCc1ccccc1 has pIC50 of 6.36

Value source: paper PMC9104225
